Values compiled from ChEMBL document CHEMBL3286180.

# TEST_DESCRIPTION: Aqueous solubility of the compound at pH 7.4
# Assay type: physicochemical
# CONDITION_LABEL: aqueous medium
ASSAY_METRIC: solubility (µM)

>>> df
                                   molecule  assay_metric  experimental_result
0  Cc1cc(C(=O)N[C@H]2CC[C@@H](NC(=O)c3cc(F)cnc3Oc3cccc(-c4ccc(CCCN5C[C@@H](C)N[C@@H](C)C5)cc4)c3)CC2)nn1C    solubility                  130

P. Cc1cc(C(=O)N[C@H]2CC[C@@H](NC(=O)c3cc(F)cnc3Oc3cccc(-c4ccc(O)c(CN5C[C@@H](C)N[C@@H](C)C5)c4)c3)CC2)nn1C
Q. Cc1cc(C(=O)N[C@H]2CC[C@@H](NC(=O)c3cc(F)cnc3Oc3cccc(-c4cccc(CN5C[C@@H](C)N[C@@H](C)C5)c4O)c3)CC2)nn1C
R. Cc1cc(C(=O)N[C@H]2CC[C@@H](NC(=O)c3cc(F)cnc3Oc3cccc(-c4ccc(O)cc4CN4CCOCC4)c3)CC2)nn1C
S. COc1cccc(Nc2c(C(N)=O)cnc3c(C)cc(S(=O)(=O)c4cccc(C(=O)N(C)C)c4)cc23)c1 [GSK-256066]
T. Cc1cc(C(=O)N[C@H]2CC[C@@H](NC(=O)c3cc(F)cnc3Oc3cccc(-c4ccc(CCN5CCC(N6CCCC6)CC5)cc4)c3)CC2)nn1C
Please give the order of these molecules when sorted by solubility, largest value leading. In your reply, arrange the labels in the requested order.
P, Q, R, T, S

1. C[C@@H]1CN(Cc2ccc(-c3cccc(Oc4ncc(F)cc4C(=O)N[C@H]4CC[C@@H](NC(=O)c5cc6ccccn6n5)CC4)c3)cc2)C[C@H](C)N1
2. Cc1cc(C(=O)N[C@H]2CC[C@@H](NC(=O)c3cc(F)cnc3Oc3cccc(-c4ccc(CN5C[C@@H](C)N[C@@H](C)C5)cc4)c3)CC2)nn1C
Lower value of solubility belongs to which: 1 or 2 ? Which one? Tell me its label.
1

###

# TEST_DESCRIPTION: Intrinsic clearance in rat hepatocytes measured per 10^6 cells
# Format: ADME, cell-based, Hepatocyte
# CONDITION_LABEL: read-out: CLH
ASSAY_METRIC: hepatocyte CLint (µL/min/1e6 cells)

                               input_smiles      assay_metric       unit_string  experimental_result
0  Cc1ccc(O)c(C(=O)N[C@H]2CC[C@@H](NC(=O)c3cc(F)cnc3Oc3ccc(F)c(F)c3)CC2)c1  hepatocyte CLint  µL/min/1e6 cells                   76
1  Cc1csc(C(=O)N[C@H]2CC[C@@H](NC(=O)c3cc(F)cnc3Oc3cccc(-c4ccc(CN5C[C@@H](C)N[C@@H](C)C5)cc4CN4CCOCC4)c3)CC2)n1  hepatocyte CLint  µL/min/1e6 cells                   10

P. Cc1cc(C(=O)N[C@H]2CC[C@@H](NC(=O)c3cc(F)cnc3Oc3cccc(-c4ccc(O)cc4CN4CCOCC4)c3)CC2)nn1C
Q. Cc1ccc(O)c(C(=O)N[C@H]2CC[C@@H](NC(=O)c3cc(F)cnc3Oc3cccc(-c4ccc(CN5C[C@@H](C)N[C@@H](C)C5)cc4CN4CCOCC4)c3)CC2)c1
Lower value of hepatocyte CLint belongs to which: P or Q ? Which one? Tell me its label.
Q
